# Assay remarks: Pharmacokinetics dose response of non-deuterated D-serine in male Sprague-Dawley rats, 30-300 mg/kg PO
# Type: in vivo
# Condition set: rat, 150 mg/kg PO, fasted, plasma, mean (CV %)
# Excerpt: The pharmacokinetic profile of non-deuterated D-serine was investigated in male Sprague-Dawley rats. […] Plasma was collected and analyzed for the non-deuterated D-serine. Additional blood was collected and analyzed for the full clinical chemistry profile.

# Compound, AUC(0-inf), µg·h/mL
rows = [
    ("NC(CO)C(=O)O (stereo in doubt)", 349),
]

----------
# Assay remarks: Single Ascending Dose (SAD) study plasma PK in healthy volunteers
# Assay type: in vivo, human
# Condition set: human, plasma, po, 1 g, 1 g single oral dose, fasted; arithmetic mean; read-out: t1/2 (converted)

# Record smiles, half-life / h
measured = [
    ("[2H][C@@](N)(CO)C(=O)O", 19.2),
]

----------
# Assay remarks: Randomized single dose crossover plasma PK of Compound 100 versus D-serine in healthy volunteers
# Format: in vivo, human
# Condition set: human, plasma, single 0.25 g oral solution, fasted, N = 11
Readout kind: Tmax (h)

# Molecule, Unit descriptor, Observed measurement
rows = [
    ("[2H][C@@](N)(CO)C(=O)O", "h", 1.5),
    ("NC(CO)C(=O)O (stereo in doubt)", "h", 1),
]

----------
# Assay remarks: Multiple Ascending Dose (MAD) study plasma PK, 7 consecutive days
# Condition set: human, plasma, po, 2 g

# Compound, AUC(0-inf) (µg·h/mL)
measured = [
    ("[2H][C@@](N)(CO)C(=O)O [Compound 100]", 522),
]

----------
# Assay remarks: Multiple Ascending Dose (MAD) study plasma PK, 7 consecutive days
# Condition set: human, plasma, po, 2 g

# Compound, Cmax [µg/mL]
measured = [
    ("[2H][C@@](N)(CO)C(=O)O [Compound 100]", 52),
]

----------
# Assay remarks: Single Ascending Dose (SAD) study plasma PK in healthy volunteers
# Format: in vivo, human
# Condition set: human, plasma, po, 4 g, 4 g single oral dose, fasted; arithmetic mean

# Record smiles, Cmax (µg/mL)
measured = [
    ("[2H][C@@](N)(CO)C(=O)O", 96.5),
]

----------
# Assay remarks: Single Ascending Dose (SAD) study plasma PK in healthy volunteers
# Assay type: in vivo, human
# Condition set: human, plasma, po, 1 g, 1 g (fed) single oral dose; arithmetic mean

# Molecule, AUC(0-inf)
rows = [
    ("[2H][C@@](N)(CO)C(=O)O [Compound 100]", "173 µg·h/mL"),
]

----------
# Assay remarks: Multiple Ascending Dose (MAD) study plasma PK, 7 consecutive days
# Condition set: human, plasma, po, 4 g

# Record smiles, Unit descriptor, AUC(0-inf)
measured = [
    ("[2H][C@@](N)(CO)C(=O)O", "µg·h/mL", 911),
]

----------
# Assay remarks: Multiple Ascending Dose (MAD) study plasma PK, 7 consecutive days
# Condition set: human, plasma, po, 2 g
Readout kind: AUC(0-t) (µg·h/mL)

# Record smiles, Readout kind, Observed measurement
measured = [
    ("[2H][C@@](N)(CO)C(=O)O", "AUC(0-t)", 333),
]

----------
# Assay remarks: Single Ascending Dose (SAD) study plasma PK in healthy volunteers
# Type: in vivo, human
# Condition set: human, plasma, po, 4 g, 4 g single oral dose, fasted; arithmetic mean; read-out: t1/2 (converted)
Readout kind: half-life (h)

# Record smiles, Unit descriptor, Observed measurement
rows = [
    ("[2H][C@@](N)(CO)C(=O)O", "h", 18.4),
]

----------
Recorded Cmax, one value per entry.
# Assay remarks: Randomized single dose crossover plasma PK of Compound 100 versus D-serine in healthy volunteers
# Type: in vivo, human
# Condition set: human, plasma, single 0.25 g oral solution, fasted, mean, N = 11
Readout kind: Cmax

# Compound, Observed measurement
data = [
    ("NC(CO)C(=O)O (stereo in doubt)", "4090 ng/mL"),
    ("[2H][C@@](N)(CO)C(=O)O", "4550 ng/mL"),
]

----------
# Assay remarks: Single Ascending Dose (SAD) study plasma PK in healthy volunteers
# Type: in vivo, human
# Condition set: human, plasma, po, 2 g, 2 g single oral dose, fasted; arithmetic mean
Readout kind: Cmax (µg/mL)

# Record smiles, Observed measurement
data = [
    ("[2H][C@@](N)(CO)C(=O)O", 46.3),
]

----------
# Assay remarks: Pharmacokinetics dose response of non-deuterated D-serine in male Sprague-Dawley rats, 30-300 mg/kg PO
# Format: in vivo
# Condition set: rat, plasma, po, 150 mg/kg, 150 mg/kg PO, fasted, mean

# Compound, Unit descriptor, Tmax
measured = [
    ("NC(CO)C(=O)O (stereo in doubt) [Non-deuterated D-Serine, D-serine]", "min", 18),
]

----------
# Assay remarks: Multiple Ascending Dose (MAD) study plasma PK, 7 consecutive days
# Condition set: human, plasma, po, 4 g
# Text: The caloric content of the meal was in accordance with the FDA guidance for food-effect studies.
Readout kind: AUC(0-t) (µg·h/mL)

# Record smiles, Readout kind, Observed measurement
measured = [
    ("[2H][C@@](N)(CO)C(=O)O", "AUC(0-t)", 539),
]

----------
# Assay remarks: Single Ascending Dose (SAD) study plasma PK in healthy volunteers
# Type: in vivo, human
# Condition set: human, plasma, po, 3 g, 3 g single oral dose, fasted; arithmetic mean
Readout kind: AUC(0-inf)

# Record smiles, Observed measurement
data = [
    ("[2H][C@@](N)(CO)C(=O)O", "489 µg·h/mL"),
]

----------
# Assay remarks: Multiple Ascending Dose (MAD) study plasma PK, 7 consecutive days
# Condition set: human, plasma, po, 4 g
Readout kind: Cmax (µg/mL)

# Record smiles, Unit descriptor, Observed measurement
measured = [
    ("[2H][C@@](N)(CO)C(=O)O", "µg/mL", 70.8),
]

----------
# Assay remarks: Pharmacokinetics dose response of non-deuterated D-serine in male Sprague-Dawley rats, 30-300 mg/kg PO
# Assay type: in vivo
# Condition set: rat, plasma, po, 300 mg/kg, all doses 30, 75, 100, 150, and 300 mg/kg PO
Readout kind: Tmax

# Compound, Readout kind, Observed measurement
data = [
    ("NC(CO)C(=O)O (stereo in doubt) [Non-deuterated D-Serine, D-serine]", "Tmax", "18 to 30 min"),
]

----------
# Assay remarks: Multiple Ascending Dose (MAD) study plasma PK, 7 consecutive days
# Condition set: human, plasma, po, 2 g

# Compound, Tmax [h]
records = [
    ("[2H][C@@](N)(CO)C(=O)O [Compound 100]", 1),
]

----------
# Assay remarks: Multiple Ascending Dose (MAD) study plasma PK, 7 consecutive days
# Condition set: human, plasma, po, 1 g

# Compound, Tmax (h)
records = [
    ("[2H][C@@](N)(CO)C(=O)O [Compound 100]", 1.5),
]

----------
# Assay remarks: Single Ascending Dose (SAD) study plasma PK in healthy volunteers
# Format: in vivo, human
# Condition set: human, plasma, po, 2 g, 2 g single oral dose, fasted; arithmetic mean

# Record smiles, Unit descriptor, AUC(0-inf)
records = [
    ("[2H][C@@](N)(CO)C(=O)O", "µg·h/mL", 315),
]

----------
Recorded half-life, one value per entry.
# Assay remarks: Randomized single dose crossover plasma PK of Compound 100 versus D-serine in healthy volunteers
# Type: in vivo, human
# Condition set: human, plasma, single 0.25 g oral solution, fasted, mean, N = 11

# Compound, half-life [h]
measured = [
    ("[2H][C@@](N)(CO)C(=O)O [Compound 100]", 18.3),
    ("NC(CO)C(=O)O (stereo in doubt) [Non-deuterated D-Serine, D-serine]", 17.2),
]

----------
# Assay remarks: Pharmacokinetics of non-deuterated D-serine in male Sprague-Dawley rats, 300 mg/kg PO
# Assay type: in vivo
# Condition set: rat, fasted, plasma, mean, endogenous level subtracted
Readout kind: AUC(0-inf) (µg·h/mL)

# Compound, Observed measurement
records = [
    ("NC(CO)C(=O)O (stereo in doubt)", 500),
]

----------
# Assay remarks: Pharmacokinetics of non-deuterated D-serine in male Sprague-Dawley rats, 300 mg/kg PO
# Format: in vivo
# Condition set: rat, fasted, plasma, mean
Readout kind: Tmax (min)

# Compound, Readout kind, Observed measurement
rows = [
    ("NC(CO)C(=O)O (stereo in doubt)", "Tmax", 30),
]

----------
# Assay remarks: Single Ascending Dose (SAD) study plasma PK in healthy volunteers
# Format: in vivo, human
# Condition set: human, plasma, po, 1 g, 1 g (fed) single oral dose; arithmetic mean
# Protocol: The 0.5, 2, 3, and 4 g doses were evaluated under fasted conditions (after an overnight fast) while the 1 g dose was evaluated under both fasted and fed conditions (within 30 minutes of consumption of a meal) in a crossover design. […] Blood samples for PK analysis were obtained at several time points after dose administration. Safety assessments included monitoring of adverse events and clinical laboratory testing including monitoring of kidney function.
Readout kind: Cmax (ng/mL)

# Record smiles, Observed measurement
measured = [
    ("[2H][C@@](N)(CO)C(=O)O", 15300),
]
